# Tested on: Fer (mouse)
# Run description: phosphorylation enrichment, bacterial display (enrichment ratio); higher = better substrate or ligand; peptides without Tyr show the background
Documented phosphorylation enrichment across a set of sequences
Respond with the number and no other words.

TAGFSYEKWEI [TEC_Y360] : 1.46
AALSAYAAQRP [PTPRN2_Y249] : 0.347
MENFIYESMQF [CYP19A1_Y361_R365Q_YF] : 16.1
TISPFYRQSLF [CRYAA_Y48_YF] : 0.369
RLLVVYPWTRR [HBB_Y36_Q40R] : 0.407

Q: Consider the sequence GNYSGYDDAWD [POLR1C_Y36] and give its measured phosphorylation enrichment.
Result: 0.742

Q: # query: phosphorylation enrichment of entry CTTIQYNYMCN [TP53_Y234_H233Q]
Result: 0.445

Q: # input sequence: GQAPGYSYTAA [CYCS_Y47] ; wanted: its phosphorylation enrichment
Result: 0.433

* * *

Listed next: entries and their corresponding phosphorylation enrichment.
# System: FGFR1 (UniProt P11362)
# Sequence (P11362 whole entry, looked up): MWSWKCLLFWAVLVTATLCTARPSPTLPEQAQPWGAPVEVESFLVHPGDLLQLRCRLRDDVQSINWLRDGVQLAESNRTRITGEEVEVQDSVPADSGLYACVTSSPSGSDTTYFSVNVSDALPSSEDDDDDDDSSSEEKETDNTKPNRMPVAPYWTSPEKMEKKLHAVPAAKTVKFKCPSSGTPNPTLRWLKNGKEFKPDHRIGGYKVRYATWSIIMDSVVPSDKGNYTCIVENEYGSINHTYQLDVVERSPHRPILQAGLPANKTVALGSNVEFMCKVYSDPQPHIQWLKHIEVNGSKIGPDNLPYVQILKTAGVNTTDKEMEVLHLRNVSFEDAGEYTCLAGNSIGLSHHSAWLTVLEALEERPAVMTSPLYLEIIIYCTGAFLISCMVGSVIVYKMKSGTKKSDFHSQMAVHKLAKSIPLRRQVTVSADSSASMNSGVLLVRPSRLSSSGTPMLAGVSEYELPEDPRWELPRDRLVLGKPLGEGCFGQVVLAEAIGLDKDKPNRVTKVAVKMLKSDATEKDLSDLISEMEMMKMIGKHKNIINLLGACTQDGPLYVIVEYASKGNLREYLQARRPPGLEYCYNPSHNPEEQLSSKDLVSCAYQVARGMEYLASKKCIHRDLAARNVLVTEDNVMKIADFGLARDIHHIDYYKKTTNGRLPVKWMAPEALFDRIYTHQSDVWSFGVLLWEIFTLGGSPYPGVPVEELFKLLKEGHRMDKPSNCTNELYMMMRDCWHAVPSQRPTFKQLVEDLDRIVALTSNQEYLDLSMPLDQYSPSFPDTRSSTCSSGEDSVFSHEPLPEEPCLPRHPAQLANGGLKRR
# Run description: phosphorylation enrichment, bacterial display (enrichment ratio); higher = better substrate or ligand; peptides without Tyr show the background
# respond with the number and nothing more

Q: Returns the measured phosphorylation enrichment for the input sequence. Input: SECCKYKIDNP [OSMR_Y689]
Result: 0.756

* * *

# System: SHP2-C SH2
# Run description: SH2 binding enrichment of the phosphorylated peptide, bacterial display (enrichment ratio); higher = better substrate or ligand; peptides without Tyr show the background
Readout: SH2 binding enrichment

Field: example entries. Status: answers known.
RYMELYDLNRD [BBS2_Y648] : 0.8
MEVEQYIFVKC [CYBB_Y324_G322E] : 0.599
QMVGMYAFSFM [AVPR2_Y124_S126F_YF] : 0.817
RGGWVYVLHPT [TRMT61A_Y67] : 0.787
SLHPGYNFRYA [P2RX7_Y291_Y288H] : 1.93

Q: SHP2-C SH2 / SH2 binding enrichment / HCFAAYFQQGD [GPI_Y351_R347C] : value?
Result: 0.929

Q: API: value(readout= SH2 binding enrichment, system= SHP2-C SH2, query= YSTPPYLLEAA [BRIP1_Y921_S919P] )
Result: 0.811

Q: Lab note: need SH2 binding enrichment with SHP2-C SH2 for entry LNERHYGALIG [BPGM_Y92] , please look it up.
Result: 0.74

Q: State its SH2 binding enrichment on SHP2-C SH2: FTNELYMMMRD [FGFR1_Y730_C725Y_YF]
Result: 0.661

Q: Give SH2 binding enrichment (SHP2-C SH2) of the following sequence: HRGFLYLAIEY [TEK_Y899_Y897F]
Result: 0.77

Q: Form: Entry = TEVRRYVLPLN [RPE65_Y368_P363T] | System = SHP2-C SH2 | SH2 binding enrichment = ____
Result: 0.737

Q: Request - read-out SH2 binding enrichment | tested on SHP2-C SH2 | sequence SWDKRYCEAGF [ITGA2B_Y197]
Result: 0.569

Q: Recorded SH2 binding enrichment for LSIQCYLRASD [HMGCS2_Y262_L266S] with SHP2-C SH2, please?
Result: 0.795

Q: Write down the reported SH2 binding enrichment of FSPGSNERETF [NF1_Y2192_Y2192N] , test system: SHP2-C SH2.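 Further: peptide library displayed on the E. coli surface as eCPX fusions, selected cells deep-sequenced, score is each peptide's frequency after selection divided by its frequency in the input.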
Result: 0.662
